// pKd lookup, one value per entry
B1: scFv; the commonest letter at each place (parent)
chain 1: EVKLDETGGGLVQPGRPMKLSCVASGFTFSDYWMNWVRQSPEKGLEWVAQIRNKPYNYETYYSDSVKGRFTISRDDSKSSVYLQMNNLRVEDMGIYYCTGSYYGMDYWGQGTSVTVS
chain 2: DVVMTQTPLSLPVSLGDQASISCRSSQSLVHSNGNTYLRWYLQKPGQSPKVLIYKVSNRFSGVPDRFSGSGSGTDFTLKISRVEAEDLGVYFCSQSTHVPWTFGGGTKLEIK

variants of: B1; assay: Kd (Tite-Seq); conditions: with fluorescein; format: scFv 4-4-20, heavy + light
pKd: −log10 of the molar value.
Endpoint Label: pKd

Variant String	Result
chain 1 Y107F G109N	≤ 5.00
chain 1 F29P	7.50
chain 1 F29S M34S	≤ 5.00
chain 1 Y103T D106Y	≤ 5.00
chain 1 S101H W108Y	≤ 5.00
chain 1 G100D G109N	≤ 5.00
chain 1 S30G W36S	5.83
chain 1 G104M W108V G109T	≤ 5.00
chain 1 D31E M34P	≤ 5.00
chain 1 D106W G109A	≤ 5.00
chain 1 F29I S30L	6.17
